Assign bioavailability to each entry below.
- protocol_summary: in vivo
- experimental_context: Sprague-Dawley, rat, po, 4 mg/kg
Please state the figure in %; there is no need to write the unit.

## Task Dear colleague, please send me the reported bioavailability for `CC(C)(C#N)[C@H]1OC2(CCN(C(=O)[C@@H]3CN(C4CCOCC4)C[C@H]3c3ccc(F)cc3F)CC2)c2cc(F)c(Cl)cc21` when you can.
## Result 23

## Task Dear colleague, please send me the reported bioavailability for `CC(=O)NC(C)(C)[C@H]1OC2(CCN(C(=O)[C@@H]3CN(C4CCOCC4)C[C@H]3c3ccc(F)cc3F)CC2)c2cc(Cl)c(C)cc21` when you can.
## Result 26
